target: T1, recombinant human CTGF-Fc protein (Creative Biomart) (human); assay: SPR (Biacore)
T1 construct: Bought; also called human CTGF with a human IgG1 Fc Tag
T1 sequence (chain, as listed by the source limits assumed): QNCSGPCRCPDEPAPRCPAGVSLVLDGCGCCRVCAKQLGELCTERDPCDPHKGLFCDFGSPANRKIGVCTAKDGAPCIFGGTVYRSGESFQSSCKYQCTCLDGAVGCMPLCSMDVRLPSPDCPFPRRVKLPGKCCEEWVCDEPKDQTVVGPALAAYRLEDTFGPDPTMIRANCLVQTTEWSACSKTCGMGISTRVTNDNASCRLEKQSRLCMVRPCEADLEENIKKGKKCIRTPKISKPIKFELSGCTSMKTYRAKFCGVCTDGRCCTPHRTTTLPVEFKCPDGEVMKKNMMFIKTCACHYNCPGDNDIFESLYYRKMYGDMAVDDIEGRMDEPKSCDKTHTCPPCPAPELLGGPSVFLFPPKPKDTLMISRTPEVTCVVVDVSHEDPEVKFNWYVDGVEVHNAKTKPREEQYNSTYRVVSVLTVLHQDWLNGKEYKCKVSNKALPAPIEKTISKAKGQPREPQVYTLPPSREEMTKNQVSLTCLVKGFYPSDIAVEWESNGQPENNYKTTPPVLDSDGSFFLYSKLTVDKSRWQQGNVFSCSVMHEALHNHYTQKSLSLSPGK

binder: lipocalin mutein of SEQ ID NO: 5 (designed binder, also called hNGAL mutein; not shown: C-terminal His-tag) QDSTSDLIPAPPLSKVPLQQNFQDNQFQGKWYVVGKAGNALREDKEPPKMWATIYELKEDKSYDVTHVHFLTKKCKYLIDTFVPGSQPGEFTIGAIKSGPGLTSPLVRVVSTNYNQHAMVFFKWVSQNREWFTITLYGRTKELTSELKENFIRFSKSLGLPENHIVFPVPIDQCIDG
unit symbol: s⁻¹
koff: 6.65e-05
--
binder: lipocalin mutein of SEQ ID NO: 8 (designed binder, also called hNGAL mutein; not shown: C-terminal His-tag) QDSTSDLIPAPPLSKVPLQQNFQDNQFQGKWYVVGLAGNYGLRTDKRPSKMFATIYELKEDKSYDVTSVRFEQERCHYTIRTFVPGSQPGEFTSGNIGNYPGSYSTLVRVVSTNYNQHAMVFFKSVIQNREYFAITLYGRTKELTSELKENFIRFSKSLGLPENHIVFPVPIDQCIDG
unit symbol: s⁻¹
koff: 0.000114

Origin of measurements: patent US20240228562A1
